Tested on: Human A2780 cell line
Experiment: MTT cytotoxicity assay, cisplatin-sensitive ovarian A2780 cells, with or without BSO
Format: cell-based
Conditions: Table 4; A2780; BSO at MTC; read-out: IC50 +BSO (MTC)
PROPERTY: IC50
Please answer using a numeric value trailed by its unit.

Q) Consider the compound N.N.[Cl][Pt][Cl] [Complex 1, cis-diamminedichloroplatinum, reference compound] and give its recorded IC50.
A) 4.25 µM

----------
Test system: Human 2780CP cell line
Test: MTT cytotoxicity assay, cisplatin-resistant ovarian 2780CP cells, with or without BSO
Format: cell-based
Details: Table 4; 2780CP; BSO at MTC; read-out: IC50 +BSO (MTC)
PROPERTY: IC50 (µM)
A number alone suffices; assume µM.

Q) GET IC50 where system = Human 2780CP cell line and item = N.N.[Cl][Pt][Cl] [Complex 1, cis-diamminedichloroplatinum, reference compound]
A) 58.3
